test: viability loss with induced miR-34 in A549 – imaging, A549 dox-inducible miR-34, nuclei and caspase counts, primary screen (AID 1347080); details: A549 miR-34 inducible, Hoechst nuclei count, 48 h; measured here: total cells without miR-34 induction
Quick rule for you: cell count at 7000 or higher means y, lower means n.

[
  {
    "COMPOUND": "Cc1ccc(S(=O)(=O)Nc2nc3ccccc3nc2Nc2ccc3nsnc3c2)cc1",
    "ASSIGNED LABEL": "n"
  },
  {
    "COMPOUND": "CN1CCN(c2ccc(OC(F)(F)F)c(Nc3ncc4c(n3)-c3c(c(C(N)=O)nn3CCO)CC4)c2)CC1",
    "ASSIGNED LABEL": "n"
  },
  {
    "COMPOUND": "O=C(CCCCCCNC(=O)c1cnc(N(c2ccccc2)c2ccccc2)nc1)NO",
    "ASSIGNED LABEL": "n"
  },
  {
    "COMPOUND": "CC(C)NCCN(C(C)C)S(=O)(=O)c1ccc(Cl)cc1Cl",
    "ASSIGNED LABEL": "y"
  },
  {
    "COMPOUND": "CCCCC[C@H](O)/C=C/[C@H]1[C@H](O)CC(=O)[C@@H]1C/C=C\\CCCC(=O)Oc1ccc(NC(C)=O)cc1",
    "ASSIGNED LABEL": "n"
  },
  {
    "COMPOUND": "C/C(O)=C1\\C(=O)[C@@H]2[C@H]3c4c[nH]c5cccc(c45)C[C@H]3C(C)(C)N2C1=O",
    "ASSIGNED LABEL": "n"
  },
  {
    "COMPOUND": "O=C(O)CCC/C=C\\C[C@@H]1[C@@H](/C=C/[C@@H](O)COc2ccccc2)[C@H](O)C[C@@H]1O",
    "ASSIGNED LABEL": "n"
  },
  {
    "COMPOUND": "C[C@H](Cc1ccc(O)c(O)c1)[C@@H](C)Cc1ccc(O)c(O)c1",
    "ASSIGNED LABEL": "y"
  },
  {
    "COMPOUND": "C[C@@]1(O)[C@H](O)[C@@H](CO)O[C@H]1n1cnc2c(NC3CCCC3)nc(Cl)nc21",
    "ASSIGNED LABEL": "y"
  },
  {
    "COMPOUND": "Cc1ccc2nc(NCCN)c3ncc(C)n3c2c1",
    "ASSIGNED LABEL": "n"
  },
  {
    "COMPOUND": "CCCc1c(OCCCOc2ccc(OCC(=O)O)cc2)ccc(CC=O)c1O",
    "ASSIGNED LABEL": "y"
  },
  {
    "COMPOUND": "CCCCCCCCCCCCCCCC(=O)NC[C@@H](C)O",
    "ASSIGNED LABEL": "n"
  },
  {
    "COMPOUND": "CCCCC[C@H](O)/C=C/[C@@H]1[C@@H](C/C=C\\CCCC(=O)N(CC)CC)[C@@H](O)C[C@H]1O",
    "ASSIGNED LABEL": "n"
  }
]

* * *

Catalogue of compounds with associated inhibition
experiment: growth inhibition, single agents and combos, HD-MB03, cell-based, BGB or cisplatin IC20 combos, synergistic combos for chromothripsis tumors (AID 1671455); conditions: HD-MB03 medulloblastoma cells, measured here: combo with cisplatin at IC20, at 0.5 µM, stronger effect = higher value;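 further: 0% = vehicle DMSO and 100% = high DMSO as cytotoxic control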

[
  {
    "COMPOUND": "CS(=O)(=O)c1ccc(-c2nnc(/C=C/c3nnc(-c4ccc(C#N)cc4)o3)n2-c2ccccc2Cl)nc1",
    "inhibition": "19.9%"
  },
  {
    "COMPOUND": "Nc1ncnc2c1c(-c1cnc3[nH]ccc3c1)nn2C1CCCC1",
    "inhibition": "41.5%"
  },
  {
    "COMPOUND": "Nc1nc2n[nH]nc2c(=O)[nH]1",
    "inhibition": "19.7%"
  }
]

* * *

experiment: compounds altering HSF1 focus formation in cells – imaging, Selleck Cancer Library (AID 1347162); conditions: human cells, HSF1 nuclear foci imaging, at 10 µM; measured here: HSF1 foci SSMD mean
Catalogue of molecules with associated SSMD
OUTCOME MEASURE: SSMD

[
  {
    "MOLECULE": "CC(=O)c1c(C)c2cnc(Nc3ccc(N4CCNCC4)cn3)nc2n(C2CCCC2)c1=O",
    "ASSAY VALUE": -9.93
  },
  {
    "MOLECULE": "Nc1ccc(C(=O)Nc2cccc(-c3nc(N4CCOCC4)c4oc5ncccc5c4n3)c2)cn1",
    "ASSAY VALUE": -0.394
  },
  {
    "MOLECULE": "Nc1ccccc1NC(=O)c1ccc(CNc2nccc(-c3cccnc3)n2)cc1",
    "ASSAY VALUE": 2.12
  },
  {
    "MOLECULE": "NC(=O)c1ccc2nc(-c3ccc(Oc4ccc(Cl)cc4)cc3)[nH]c2c1",
    "ASSAY VALUE": 0.89
  },
  {
    "MOLECULE": "CCCS(=O)(=O)Nc1ccc(F)c(C(=O)c2c[nH]c3ncc(-c4ccc(Cl)cc4)cc23)c1F",
    "ASSAY VALUE": 2.8
  },
  {
    "MOLECULE": "CCCCc1nc2cc(/C=C/C(=O)NO)ccc2n1CCN(CC)CC",
    "ASSAY VALUE": -1.52
  },
  {
    "MOLECULE": "Cn1c(=O)n(-c2ccc(C(C)(C)C#N)cc2)c2c3cc(-c4cnc5ccccc5c4)ccc3ncc21",
    "ASSAY VALUE": -0.518
  },
  {
    "MOLECULE": "CC[C@H](CO)Nc1nc(NCc2ccccc2)c2ncn(C(C)C)c2n1",
    "ASSAY VALUE": 1.82
  },
  {
    "MOLECULE": "CN1CCN(c2cccc(Nc3nc4c(-c5ccc(S(C)(=O)=O)cc5)cccn4n3)c2)CC1",
    "ASSAY VALUE": -2.58
  },
  {
    "MOLECULE": "Cc1cccc(-c2nn3c(c2-c2ccnc4ccc(C(N)=O)cc24)CCC3)n1",
    "ASSAY VALUE": 1.55
  },
  {
    "MOLECULE": "COc1ccc(CCN2CCN(CCCc3ccccc3)CC2)cc1OC",
    "ASSAY VALUE": 3.93
  },
  {
    "MOLECULE": "CNC(=O)c1cc(Oc2ccc(NC(=O)Nc3cc(C(C)(C)C)nn3-c3ccc4ncccc4c3)c(F)c2)ccn1",
    "ASSAY VALUE": 0.0864
  },
  {
    "MOLECULE": "Nc1ccc(-c2ccc3ncc4ccc(=O)n(-c5cccc(C(F)(F)F)c5)c4c3c2)cn1",
    "ASSAY VALUE": 2.81
  },
  {
    "MOLECULE": "Nc1nccc(Oc2ccc(NC(=O)c3c[nH]cc(-c4ccc(F)cc4)c3=O)cc2F)c1Cl",
    "ASSAY VALUE": -0.396
  },
  {
    "MOLECULE": "CCOc1cc(/C=C2/C(=O)N(c3ccccc3)N=C2C)cc(Cl)c1OCC(=O)OC",
    "ASSAY VALUE": 1.24
  },
  {
    "MOLECULE": "CN(C)C[C@@H]1CCn2cc(c3ccccc32)C2=C(C(=O)NC2=O)c2cn(c3ccccc23)CCO1",
    "ASSAY VALUE": 3.92
  },
  {
    "MOLECULE": "CCc1cc(Nc2nccc(-c3c(-c4ccc(OC)c(C(=O)Nc5c(F)cccc5F)c4)nc4ccccn34)n2)c(OC)cc1N1CCC(N2CCN(S(C)(=O)=O)CC2)CC1",
    "ASSAY VALUE": 2.41
  },
  {
    "MOLECULE": "COc1ccc2cc(-c3nc(-c4ccc(S(C)=O)cc4)[nH]c3-c3ccncc3)ccc2c1 (stereo not given)",
    "ASSAY VALUE": 4.96
  },
  {
    "MOLECULE": "CNC(=O)c1ccc(C)c(-n2c(C)cc(OCc3ccc(F)cc3F)c(Br)c2=O)c1",
    "ASSAY VALUE": 3.49
  },
  {
    "MOLECULE": "N#CC[C@H](C1CCCC1)n1cc(-c2ncnc3[nH]ccc23)cn1",
    "ASSAY VALUE": 3.63
  },
  {
    "MOLECULE": "CC(C)OC(=O)C1=CN(C(=O)c2ccc(F)c(F)c2)CC(C)(C)c2c1[nH]c1ccccc21",
    "ASSAY VALUE": 3.1
  },
  {
    "MOLECULE": "Nc1[nH]nc2nnc(-c3c(-c4ccccc4)nn4ccccc34)cc12",
    "ASSAY VALUE": 2.88
  },
  {
    "MOLECULE": "O=C(Cc1ccc(-c2ccc(OCCN3CCOCC3)cc2)cn1)NCc1ccccc1",
    "ASSAY VALUE": 2.71
  },
  {
    "MOLECULE": "Cc1nnc(C(C)C)n1C1CC2CCC(C1)N2CC[C@H](NC(=O)C1CCC(F)(F)CC1)c1ccccc1 (stereo not given in full)",
    "ASSAY VALUE": 0.747
  },
  {
    "MOLECULE": "Cc1[nH]c2ccccc2c1CCNCc1ccc(/C=C/C(=O)NO)cc1",
    "ASSAY VALUE": -3.12
  },
  {
    "MOLECULE": "Cc1ccc([C@@H]2O[C@H](CO)[C@@H](O)[C@H](O)[C@H]2O)cc1Cc1ccc(-c2ccc(F)cc2)s1",
    "ASSAY VALUE": 0.238
  },
  {
    "MOLECULE": "Cn1cnc(=N)c2[nH]cnc21",
    "ASSAY VALUE": 2.26
  },
  {
    "MOLECULE": "CO[C@H]1C[C@@H]2CC[C@@H](C)[C@@](O)(O2)C(=O)C(=O)N2CCCC[C@H]2C(=O)O[C@H]([C@H](C)C[C@@H]2CC[C@@H](O)[C@H](OC)C2)CC(=O)[C@H](C)/C=C(\\C)[C@@H](O)[C@@H](OC)C(=O)[C@H](C)C[C@H](C)/C=C/C=C/C=C/1C",
    "ASSAY VALUE": 1.27
  },
  {
    "MOLECULE": "Nc1ccc2ncnc(NCCc3ccc(Oc4ccccc4)cc3)c2c1",
    "ASSAY VALUE": -5.88
  },
  {
    "MOLECULE": "C[C@@H](Oc1cc(-n2cnc3ccc(CN4CCN(C)CC4)cc32)sc1C(N)=O)c1ccccc1C(F)(F)F",
    "ASSAY VALUE": 1.17
  }
]
